Tested on: C. guilliermondii IBA 155
Test: antifungal activity (disc-diffusion, MIC, MFC)
Assay type: cell-based, Candida guilliermondii
Conditions: Meyerozyma guilliermondii, IBA155; 0.4 mg per disc, 9 mm disc (fluconazole 0.025 mg, 6 mm disc); - no zone; read-out: Diameter of inhibition zone
measurement.name: zone of inhibition at 0.4 mg/disc
Kindly report the value followed by its unit.

### Prompt # assay system C. guilliermondii IBA 155: give zone of inhibition at 0.4 mg/disc of OB(O)c1cc(F)c(B(O)O)c(F)c1F
### Response 29 mm

### Prompt Find zone of inhibition at 0.4 mg/disc for OB(O)c1ccc(C(F)(F)F)cc1B(O)O on C. guilliermondii IBA 155 and write it down.
### Response 40 mm

### Prompt Write down the reported zone of inhibition at 0.4 mg/disc (system: C. guilliermondii IBA 155) of OB(O)c1cc(F)ccc1F
### Response 33 mm

### Prompt For C. guilliermondii IBA 155, give zone of inhibition at 0.4 mg/disc of the listed compound: OC(Cn1cncn1)(Cn1cncn1)c1ccc(F)cc1F [Fl, fluconazole, reference compound]
### Response 40 mm

### Prompt Tell me its zone of inhibition at 0.4 mg/disc on C. guilliermondii IBA 155: OB(O)c1cc(I)c(B(O)O)cc1I
### Response 30 mm

### Prompt State recorded zone of inhibition at 0.4 mg/disc with C. guilliermondii IBA 155, entry OB(O)c1cc(F)c(B(O)O)c(F)c1 , no comment.
### Response 16 mm

### Prompt Lab note: record zone of inhibition at 0.4 mg/disc of OB(O)c1ccc(B(O)O)c(F)c1 tested on C. guilliermondii IBA 155.
### Response 24 mm

### Prompt Report zone of inhibition at 0.4 mg/disc from C. guilliermondii IBA 155 testing of OB(O)c1cc(C(F)(F)F)cc(B(O)O)c1F
### Response 14 mm

### Prompt Provide C. guilliermondii IBA 155 zone of inhibition at 0.4 mg/disc reading for OB(O)c1cccc(B(O)O)c1 .
### Response 14 mm

### Prompt Would you please give the reported zone of inhibition at 0.4 mg/disc of OB(O)c1cc(F)c(B(O)O)cc1F with C. guilliermondii IBA 155?
### Response 16 mm

### Prompt Supply zone of inhibition at 0.4 mg/disc measured with C. guilliermondii IBA 155 for OB(O)c1ccccc1S .
### Response 40 mm

### Prompt Consider the compound O=Cc1cc(F)ccc1B(O)O tested on C. guilliermondii IBA 155; state its zone of inhibition at 0.4 mg/disc.
### Response 27 mm

### Prompt # return zone of inhibition at 0.4 mg/disc of OB(O)c1cc(Br)c(B(O)O)cc1Br (system: C. guilliermondii IBA 155)
### Response 34 mm

The measured values listed here are drawn from paper PMC10648349.
